test system: S. enterica typhimurium tolC KO; experiment: growth AUC normalised to DMSO control (median) (fraction of control); higher = less growth inhibition, active = hit call of the paper; conditions: 20 µM;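 active = normalised median growth AUC below 0.1 of DMSO control; inactive = AUC 0.1 or higher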;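 also: active when median AUC fell below 0.1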
Counter-ions that a name gives are not always drawn.
Your response should consist of one outcome taken from True (active), False (inactive)

Lookup: Field: outcome | Entry: COC(=O)Nc1nc2ccc(SC(C)C)cc2[nH]1 [Methiazole]
Found: False

Lookup: Field: outcome | Entry: CCC(=O)O[C@@H]1CC(=O)O[C@H](C)C/C=C/C=C/[C@H](O)[C@H](C)C[C@H](CC=O)[C@H](O[C@@H]2O[C@H](C)[C@@H](O[C@H]3C[C@@](C)(O)[C@@H](OC(=O)CC)[C@H](C)O3)[C@H](N(C)C)[C@H]2O)[C@H]1OC [Midecamycin]
Found: True

Lookup: Field: outcome | Entry: CO[C@@H]1[C@@H](OC(N)=O)[C@@H](O)[C@H](Oc2ccc3c(O)c(NC(=O)c4ccc(O)c(CC=C(C)C)c4)c(=O)oc3c2C)OC1(C)C [Novobiocin sodium salt]
Found: True

***
Lookup: Field: outcome | Entry: CCCNC(C)(C)C(=O)Nc1ccccc1C [Quatacaine]
Found: False

Lookup: Field: outcome | Entry: CC(=O)c1ccc(S(=O)(=O)NC(=O)NC2CCCCC2)cc1 [Acetohexamide]
Found: False

Lookup: Field: outcome | Entry: C[C@@H](O)[C@H]1C(=O)N2C(C(=O)O)=C(SCCNC=N)C[C@H]12 [Imipenem]
Found: False

Lookup: Field: outcome | Entry: COc1ccc2c(c1)c(CC(=O)OC/C=C(\C)CC/C=C(\C)CCC=C(C)C)c(C)n2C(=O)c1ccc(Cl)cc1 [Indometacin farnesil]
Found: False

Lookup: Field: outcome | Entry: NC(=O)NS(=O)(=O)c1ccc(N)cc1 [Sulfacarbamide]
Found: False

Lookup: Field: outcome | Entry: C[N+](C)(C)C[C@H](O)CC(=O)[O-] [Levocarnitine]
Found: False

Lookup: Field: outcome | Entry: CCC[C@@H]1C[C@@H](C(=O)N[C@@H]([C@H]2O[C@H](SC)[C@H](O)[C@@H](O)[C@H]2O)[C@H](C)Cl)N(C)C1 [Clindamycin hydrochloride]
Found: False

Lookup: Field: outcome | Entry: CCCCN(CCCC)CCCOC(=O)c1ccc(N)cc1 [Butacaine]
Found: False

Lookup: Field: outcome | Entry: C=C1CC[C@H](O)C/C1=C/C=C1\CCC[C@]2(C)[C@@H]([C@H](C)CCCC(C)C)CC[C@@H]12 [Cholecalciferol]
Found: False

Lookup: Field: outcome | Entry: COc1ccc2c(c1)N(C[C@H](C)CN(C)C)c1ccccc1S2 [Methotrimeprazine maleate salt]
Found: False

###

system: P. vulgatus WT; assay: growth AUC normalised to DMSO control (median) (fraction of control); higher = less growth inhibition, active = hit call of the paper; conditions: 20 µM
Counter-ions that a name gives are not always drawn.
Collected growth AUC normalised to DMSO control values appear next to each entry.
Please give only the number in your answer, with no unit.

Known results for compounds:
Lookup: For the compound shown here, CCN(CC)CCNC(=O)c1ccc(N)cc1 [Procainamide hydrochloride] , give the reported growth AUC normalised to DMSO control.
Found: 1.03

Lookup: For the compound shown here, CC(C)C(=O)c1c(C(C)C)nn2ccccc12 , give the reported growth AUC normalised to DMSO control.
Found: 0.956

Lookup: For the compound shown here, CC(Cc1cccc(C(F)(F)F)c1)NCCOC(=O)c1ccccc1 (configuration not stated) , give the reported growth AUC normalised to DMSO control.
Found: 0.975

// next item, growth AUC normalised to DMSO control requested
Lookup: For the compound shown here, CCCSS/C(CCO)=C(/C)N(C=O)Cc1cnc(C)nc1N , give the reported growth AUC normalised to DMSO control.
Found: 1.06
